Values were extracted from patent US9745299B2.

Biological target: CDK9/CyclinT (Homo sapiens)
Construct: purchased Proqinase, Freiburg, Germany
Sequence (P50750 whole entry): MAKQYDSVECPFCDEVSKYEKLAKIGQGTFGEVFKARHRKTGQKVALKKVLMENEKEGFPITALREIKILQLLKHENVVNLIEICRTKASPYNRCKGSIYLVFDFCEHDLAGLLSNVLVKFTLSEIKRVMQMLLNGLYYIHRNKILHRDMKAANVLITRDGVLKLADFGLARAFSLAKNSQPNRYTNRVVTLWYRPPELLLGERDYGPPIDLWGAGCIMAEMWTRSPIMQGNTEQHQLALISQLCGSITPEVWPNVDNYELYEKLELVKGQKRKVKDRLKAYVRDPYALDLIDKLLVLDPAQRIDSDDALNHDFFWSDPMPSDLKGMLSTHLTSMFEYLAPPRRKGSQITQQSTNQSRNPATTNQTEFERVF
Sequence (O60563 whole entry partner): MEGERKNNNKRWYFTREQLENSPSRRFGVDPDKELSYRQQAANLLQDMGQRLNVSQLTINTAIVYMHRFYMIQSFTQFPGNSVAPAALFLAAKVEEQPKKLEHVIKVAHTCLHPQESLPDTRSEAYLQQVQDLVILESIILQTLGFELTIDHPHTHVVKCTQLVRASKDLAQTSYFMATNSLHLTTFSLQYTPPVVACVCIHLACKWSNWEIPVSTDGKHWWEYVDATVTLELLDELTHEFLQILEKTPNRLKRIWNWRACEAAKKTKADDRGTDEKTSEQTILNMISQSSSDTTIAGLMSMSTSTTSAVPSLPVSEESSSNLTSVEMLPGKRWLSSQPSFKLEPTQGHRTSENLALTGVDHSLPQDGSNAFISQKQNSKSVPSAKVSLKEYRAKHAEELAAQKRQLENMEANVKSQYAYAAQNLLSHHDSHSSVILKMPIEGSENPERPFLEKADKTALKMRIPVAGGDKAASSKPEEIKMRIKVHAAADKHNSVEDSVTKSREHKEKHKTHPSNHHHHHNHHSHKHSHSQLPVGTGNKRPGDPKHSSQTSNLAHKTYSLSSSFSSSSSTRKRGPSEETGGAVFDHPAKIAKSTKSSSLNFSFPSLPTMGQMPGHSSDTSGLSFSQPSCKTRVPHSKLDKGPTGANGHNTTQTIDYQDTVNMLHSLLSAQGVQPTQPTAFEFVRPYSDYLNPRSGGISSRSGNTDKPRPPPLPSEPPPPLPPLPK
Experiment: ADP-Glo Kinase Assay, CDK9/CyclinT; further: ATP at apparent Km (26 µM)
Type: biochemical
Settings: read-out: % inhibition at 1 μM CDK9/CyclinT
Property: inhibition at 1 µM; scope: individual compounds
// note: answer is a bare numeric in %

Take a look at these entries with their results.
>>> quantitative_result("Brc1c(Br)c2c3c(nc(C4CCNCC4)n3CCC2)c1Br")
39
>>> quantitative_result("Nc1nc2c(Br)c(Br)c(Br)c3c2n1CCC3")
34
>>> quantitative_result("CCN(CC)c1nc2c(Br)c(Br)c(Br)c3c2n1CCC3")
14
>>> quantitative_result("Cc1c(Br)c(Br)c2c3c1nc(N1CCC(N)CC1)n3CCC2")
15

Q: Requested read-out: inhibition at 1 µM. Entry: CC1CCc2c(Br)c(Br)c(Br)c3nc(N4CCNCC4)n1c23 (centres unmarked)
Result: 12
